Molecular target: ER-α in MCF-7 cells (Homo sapiens)
Construct: endogenous in cells; host or cells: MCF-7
Sequence (P03372 whole entry): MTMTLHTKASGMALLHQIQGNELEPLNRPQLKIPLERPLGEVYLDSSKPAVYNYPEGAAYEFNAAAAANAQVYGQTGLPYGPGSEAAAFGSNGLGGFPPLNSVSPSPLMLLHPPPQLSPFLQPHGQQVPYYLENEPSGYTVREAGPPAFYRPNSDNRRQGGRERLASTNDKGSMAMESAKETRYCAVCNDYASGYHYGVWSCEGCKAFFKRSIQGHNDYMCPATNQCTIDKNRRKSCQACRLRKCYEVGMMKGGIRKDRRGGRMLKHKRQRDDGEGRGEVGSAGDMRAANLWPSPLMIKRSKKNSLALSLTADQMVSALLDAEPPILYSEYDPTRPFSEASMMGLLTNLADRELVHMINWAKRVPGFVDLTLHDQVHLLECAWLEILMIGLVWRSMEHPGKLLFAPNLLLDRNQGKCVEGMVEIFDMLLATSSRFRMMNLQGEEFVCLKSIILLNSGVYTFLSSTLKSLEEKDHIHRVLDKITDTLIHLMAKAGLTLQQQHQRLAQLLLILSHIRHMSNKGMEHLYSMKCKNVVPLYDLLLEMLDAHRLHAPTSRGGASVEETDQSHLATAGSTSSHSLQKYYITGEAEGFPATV
Assay: Breast Cancer Cell ER-α In Cell Western Assay (SP1)
Assay type: cell-based
Conditions: SP1 antibody, 4 or 24 hr post compound addition, read-out: ER-α In Cell Western Assay (SP1) IC50
Protocol: MCF-7 cells were adjusted to a concentration of 200,000 cells per mL in RPMI containing 10% charcoal-stripped FBS and 20 mM HEPES. […] Integrated intensities in the 800 nm channel and 700 nm channel were measured to determine levels of ER and DNA respectively. Percent ER levels were determined as follows: (Integrated intensity 800 nm sample/integrated intensity 700 nm sample)/(Integrated intensity 800 nm untreated cells/integrated intensity 700 nm untreated cells)×100=% ER levels. […]
Catalogue of DC50 readings, one per entry.
Assay Readout: DC50

{"columns": ["Compound", "Observed Value"],
 "data": [
  ["CC/C(=C(/c1ccc(/C=C/C(=O)O)cc1)c1ccc2[nH]ncc2c1C#N)c1ccccc1 [Example 3]", "≤ 100 nM"],
  ["CC/C(=C(/c1ccc(/C=C/C(=O)O)cc1)c1ccc2[nH]nc(F)c2c1)c1ccc(OC)nc1C [Example 70]", "≤ 100 nM"],
  ["N#Cc1c(/C(=C(/c2ccccc2)C2CCC2)c2ccc(/C=C/C(=O)O)cc2)ccc2[nH]nc(F)c12 [Example 12]", "≤ 100 nM"],
  ["CCOC(=O)/C=C/c1ccc(/C(=C(\\c2ncc(Cl)cc2Cl)C2CCC2)c2ccc3[nH]nc(F)c3c2)cc1F [Example 255]", "≤ 100 nM"],
  ["OCC1CN=C(/C=C/c2ccc(/C(=C(\\c3ccccc3)C3CCC3)c3ccc4[nH]nc(F)c4c3)cc2)O1 (stereo not shown) [Example 192]", "≤ 100 nM"],
  ["CC/C(=C(/c1ccc(/C=C/C(=O)O)cc1)c1ccc2[nH]nc(F)c2c1)c1ncc(Cl)cc1Cl [Example 264]", "≤ 100 nM"],
  ["O=C(O)/C=C/c1ccc(/C(=C(\\c2ccccn2)C2CCC2)c2ccc3[nH]nc(F)c3c2)cc1 [Example 141]", "≤ 100 nM"]
]}
